Kindly state log10 Ki for each of the entries shown.
# target desc: rat TAAR1 (Rattus norvegicus (Rat))
# Sequence (Q923Y9 whole entry): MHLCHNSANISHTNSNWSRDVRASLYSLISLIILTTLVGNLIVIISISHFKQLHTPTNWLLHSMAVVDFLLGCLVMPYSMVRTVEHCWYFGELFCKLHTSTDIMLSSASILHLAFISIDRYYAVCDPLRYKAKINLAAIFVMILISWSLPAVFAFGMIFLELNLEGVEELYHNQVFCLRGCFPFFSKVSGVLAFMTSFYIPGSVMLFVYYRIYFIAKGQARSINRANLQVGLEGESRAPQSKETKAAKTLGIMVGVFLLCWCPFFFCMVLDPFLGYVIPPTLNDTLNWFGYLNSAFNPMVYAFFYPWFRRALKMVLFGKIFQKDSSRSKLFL
# protocol description: Radioligand binding assay on rat TAAR1
# conditions: rat TAAR1, HEK-293 membranes; second value of the pair (line below); read-out: Ki (μM) mouse/rat
Structures can show the parent of a compound that is named as a salt.
Give log10 of Ki, with Ki taken in µM.

Ask | Query for rat TAAR1 (Rattus norvegicus (Rat)): what log10 Ki does the record show for CCOc1cc(C(=O)Nc2ccc([C@@H]3CNCCO3)c(Cl)c2)ccn1 [Example 91, hydrochloride] ?
Reply | -2.52

Ask | Repeat for the following compound: CCOc1ccc(C(=O)Nc2ccc([C@H]3CNCCO3)c(Cl)c2)cn1 [Example 95, hydrochloride]
Reply | -1.46

Ask | Repeat for the following compound: O=C(Nc1ccc(C(F)(F)F)nc1)Nc1ccc([C@H]2CNCCO2)cc1Cl [Example 50]
Reply | -2.85

Ask | Repeat for the following compound: N#Cc1ccc(OC(F)F)c(NC(=O)Nc2ccc([C@@H]3CNCCO3)cc2F)c1 [Example 72, hydrochloride]
Reply | -3.00

Ask | Repeat for the following compound: N#Cc1cccc(NC(=O)Nc2ccc([C@@H]3CNCCO3)cc2F)c1F [Example 62]
Reply | -2.55

Ask | Repeat for the following compound: COc1ccc(C#N)cc1NC(=O)Nc1ccc([C@H]2CNCCO2)cc1Br [Example 58]
Reply | -1.79

Ask | Repeat for the following compound: CCOc1ccc(C(=O)Nc2ccc([C@@H]3CNCCO3)c(F)c2)cn1 [Example 85, hydrochloride]
Reply | -2.17

Ask | Repeat for the following compound: N#Cc1cccc(NC(=O)Nc2ccc([C@@H]3CNCCO3)cc2F)c1 [Example 3]
Reply | -2.82

Ask | Repeat for the following compound: O=C(Nc1ccc([C@@H]2CNCCO2)c(Cl)c1)c1cnn(-c2ccc(OC(F)F)cc2)c1 [Example 93, hydrochloride]
Reply | -2.92

Ask | Repeat for the following compound: O=C(Nc1ccc([C@@H]2CNCCO2)cc1Cl)c1ccn(-c2ccc(F)cc2)n1 [Example 30]
Reply | -2.92

Ask | Repeat for the following compound: N#Cc1ccc(OC(F)F)c(NC(=O)Nc2ccc([C@@H]3CNCCO3)cc2Cl)c1 [Example 47]
Reply | -2.92

Ask | Repeat for the following compound: N#Cc1ccc(-n2cc(C(=O)Nc3ccc([C@H]4CNCCO4)c(F)c3)cn2)c(F)c1 [Example 108, hydrochloride]
Reply | -2.23

Ask | Repeat for the following compound: Cc1cc(C(=O)Nc2ccc([C@H]3CNCCO3)cc2Cl)cc(C(N)=O)n1 [Example 122, hydrochloride]
Reply | -0.12

Ask | Repeat for the following compound: COc1cc(C(=O)Nc2ccc([C@H]3CNCCO3)cc2Cl)cc(C#N)n1 [Example 124, hydrochloride]
Reply | -1.64

Ask | Repeat for the following compound: N#Cc1cnc(-n2cc(C(=O)Nc3ccc([C@H]4CNCCO4)c(F)c3)cn2)cn1 [Example 131, hydrochloride]
Reply | -1.84

Ask | Repeat for the following compound: Cc1cc(C(=O)Nc2ccc([C@H]3CNCCO3)c(Cl)c2)cc(C#N)n1 [Example 112, hydrochloride]
Reply | -1.61

Ask | Repeat for the following compound: O=C(Nc1ccc([C@H]2CNCCO2)cc1F)c1cn(-c2ccc(OC(F)F)cc2)nn1 [Example 104]
Reply | -1.47

Ask | Repeat for the following compound: Cc1cc(C(=O)Nc2ccc([C@H]3CNCCO3)c(F)c2)cc(C#N)n1 [Example 115, hydrochloride]
Reply | -1.46

Ask | Repeat for the following compound: O=C(Nc1ccc(Cl)nc1)Nc1ccc([C@H]2CNCCO2)cc1F [Example 9]
Reply | -1.98

Ask | Repeat for the following compound: O=C(Nc1ccc(C(F)(F)F)nc1)Nc1ccc([C@@H]2CNCCO2)cc1F [Example 10]
Reply | -2.48

Ask | Repeat for the following compound: N#Cc1ccc(OC(F)F)c(NC(=O)Nc2ccc([C@@H]3CNCCO3)cc2Br)c1 [Example 60]
Reply | -3.00

Ask | Repeat for the following compound: O=C(Nc1ccc(Cl)nc1)Nc1ccc(C2CCCNC2)cc1Cl (racemic) [Example 41]
Reply | -2.05

Ask | Repeat for the following compound: N#Cc1ccc(-n2cc(C(=O)Nc3ccc([C@H]4CNCCO4)c(Cl)c3)cn2)c(F)c1 [Example 109, hydrochloride]
Reply | -2.42

Ask | Repeat for the following compound: O=C(Nc1cnc(C(F)(F)F)nc1)Nc1ccc([C@@H]2CNCCO2)cc1Br [Example 70]
Reply | -1.99

Ask | Repeat for the following compound: Cc1cc(C(=O)Nc2ccc([C@H]3CNCCO3)cc2Cl)cc(C#N)n1 [Example 123, hydrochloride]
Reply | -1.32

Ask | Repeat for the following compound: O=C(Nc1ccc([C@H]2CNCCO2)cc1F)c1cnn(-c2ccc3c(c2)OC(F)(F)O3)c1 [Example 82]
Reply | -2.80

Ask | Repeat for the following compound: O=C(Nc1ccc([C@@H]2CNCCO2)cc1F)c1ccn(-c2ccc(F)cc2)n1 [Example 12]
Reply | -3.22

Ask | Repeat for the following compound: O=C(Nc1ccc([C@H]2CNCCO2)cc1F)c1cnn(-c2ccc(F)cc2)c1 [Example 22]
Reply | -2.44

Ask | Repeat for the following compound: O=C(Nc1ccc([C@H]2CNCCO2)cc1Cl)c1ccn(-c2ccc(F)cc2)n1 [Example 29]
Reply | -2.44

Ask | Repeat for the following compound: O=C(Nc1cnc(C(F)(F)F)nc1)Nc1ccc([C@H]2CNCCO2)cc1Cl [Example 51]
Reply | -1.90

Ask | Repeat for the following compound: O=C(Nc1ccc(C(F)(F)F)nc1)Nc1ccc([C@H]2CNCCO2)cc1F [Example 11]
Reply | -2.02

Ask | Repeat for the following compound: O=C(Nc1ccc(Cl)nc1)Nc1ccc([C@@H]2CNCCO2)cc1Cl [Example 20]
Reply | -2.30

Ask | Repeat for the following compound: Cc1cc([C@@H]2CNCCO2)ccc1NC(=O)Nc1ccc(Cl)nc1 [Example 40]
Reply | -0.92
